Consider the following binders and their measured human MASP2 IC50 readings.
biological target: Recombinant human MASP2 enzyme (fragment corresponding to amino acids 297-686, C-terminal His Tag) (human, UniProt O00187 297-686); assay: cell-based or functional assay
Sequence (O00187 other isoform, or with tags, fused parts or gaps limits assumed): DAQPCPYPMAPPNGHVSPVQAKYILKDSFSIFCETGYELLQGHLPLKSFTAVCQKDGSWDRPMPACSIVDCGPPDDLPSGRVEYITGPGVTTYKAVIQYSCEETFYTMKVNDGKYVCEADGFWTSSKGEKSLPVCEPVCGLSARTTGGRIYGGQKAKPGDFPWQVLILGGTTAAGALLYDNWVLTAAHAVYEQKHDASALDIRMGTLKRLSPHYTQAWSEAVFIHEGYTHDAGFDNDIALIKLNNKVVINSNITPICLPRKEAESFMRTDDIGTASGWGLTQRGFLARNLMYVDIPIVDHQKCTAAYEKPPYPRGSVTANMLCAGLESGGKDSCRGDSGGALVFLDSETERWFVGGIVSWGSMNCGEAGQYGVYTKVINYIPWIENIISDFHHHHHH
Bridge positions count the residues as written; N and C are the ends. Square brackets hold non-standard residues; d marks the D form. Ends that are not written are not given here. Oic = O=C(O)[C@@H]1C[C@@H]2CCCC[C@@H]2N1; PEG8 = NCCOCCOCCOCCOCCOCCOCCOCCOCCC(=O)O; tBuAla = CC(C)(C)C[C@H](N)C(=O)O; Pen = CC(C)(S)[C@H](N)C(=O)O; Sar = CNCC(=O)O

binder | unit.name | human MASP2 IC50
[Sar]ICSRSLP[Oic]I[Pen]IP[PEG4‑CH2CO2H (15 atoms)]-OH (disulfide 3-11) [((N-Me)G)-IC+SRSLP-(Oic)-I-(Pen)+IP-(PEG4-CH2CO2H (15 atoms))-OH] | nM | 58
[Sar]ICSRS[tBuAla]PPI[Pen]IP-{PEG8-OH} (disulfide 3-11) [((N-Me)G)-IC+SRS-((tBu)A)-PPI-(Pen)+IP-(PEG8(28 atoms))-OH] | nM | 76
[Sar]ICSRSLP[Oic]I[Pen]IPR-OH (disulfide 3-11; N-terminus assumed; SMILES CC[C@H](C)[C@H](NC(=O)CNC)C(=O)N[C@H]1CSSC(C)(C)[C@@H](C(=O)N[C@H](C(=O)N2CCC[C@H]2C(=O)N[C@@H](CCCNC(=N)N)C(=O)O)[C@@H](C)CC)NC(=O)[C@H]([C@@H](C)CC)NC(=O)[C@@H]2C[C@@H]3CCCC[C@@H]3N2C(=O)[C@@H]2CCCN2C(=O)[C@H](CC(C)C)NC(=O)[C@H](CO)NC(=O)[C@H](CCCNC(=N)N)NC(=O)[C@H](CO)NC1=O) [((N-Me)G)-IC+SRSLP-(Oic)-I-(Pen)+IPR-OH] | nM | 48
